Biological target: firefly luciferase (denatured) (firefly, UniProt P08659 1-550 = luciferase)
Sequence (P08659 whole entry): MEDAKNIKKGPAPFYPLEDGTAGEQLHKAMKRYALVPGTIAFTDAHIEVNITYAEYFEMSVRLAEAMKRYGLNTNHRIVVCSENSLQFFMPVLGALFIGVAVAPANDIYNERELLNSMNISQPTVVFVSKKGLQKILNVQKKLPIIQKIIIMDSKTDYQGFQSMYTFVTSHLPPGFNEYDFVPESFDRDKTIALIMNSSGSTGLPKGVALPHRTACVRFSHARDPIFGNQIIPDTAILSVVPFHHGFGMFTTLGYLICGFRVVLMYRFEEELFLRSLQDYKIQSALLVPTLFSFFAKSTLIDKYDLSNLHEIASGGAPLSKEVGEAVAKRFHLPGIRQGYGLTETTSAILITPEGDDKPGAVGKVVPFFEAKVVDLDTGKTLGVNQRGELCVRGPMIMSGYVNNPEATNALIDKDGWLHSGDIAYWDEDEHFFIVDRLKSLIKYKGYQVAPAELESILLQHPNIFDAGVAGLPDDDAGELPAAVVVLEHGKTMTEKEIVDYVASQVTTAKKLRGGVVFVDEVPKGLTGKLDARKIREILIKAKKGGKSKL
Experiment: ELISA
quantityName: binding result

Sis1-[change] (natural protein) MVKETKLYDLLGVSPSANEQELKKGYRKAALKYHPDKPTGDTEKFKEISEAFEILLDPQKREIYDQYGLEAARSGGPSFGPGGPGGAGGAGGFPGGAGGFSGGHAFSNEDAFNIFSQFFGGSSPFGGADDSGFSFSSYPSGGGAGMGGMPGGMGGMHGGMGGMPGGFRSASSSPTYPEEETVQVNLPVSLEDLFVGKKKSFKIGRKGPHGASEKTQIDIQLKPGWKAGTKITYKNQGDYNPQTGRRKTLQFVIQEKSHPNFKRDGDDLIYTLPLSFKESLLGFSKTIQTIDGRTLPLSRVQPVQPSQTSTYPGQGMPTPKNPSQRGNLIVKYKVDYPISLNDAQKRAIDENF | binds
